measurement_target: cyno PRLR on Baf3-cyPRLR cells (cyno)
assay_text: cell-based or functional assay
readout_label: Baf3-cyPRLR proliferation IC50 (µg/mL)
Form entry: value (µg/mL) — number only.

QUERY: Read the entry Ab11 (antibody, V domains shown, murine monoclonal, isotype G1; also called murine Ab11) VH: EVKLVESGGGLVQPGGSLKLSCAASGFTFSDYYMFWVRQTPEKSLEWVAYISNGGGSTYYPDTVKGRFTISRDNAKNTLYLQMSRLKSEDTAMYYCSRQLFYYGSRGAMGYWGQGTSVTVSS VL: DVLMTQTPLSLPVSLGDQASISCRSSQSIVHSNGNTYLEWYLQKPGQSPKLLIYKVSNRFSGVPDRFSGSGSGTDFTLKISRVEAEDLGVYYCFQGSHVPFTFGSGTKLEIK and write its reported Baf3-cyPRLR proliferation IC50.
RESULT: 1.2

QUERY: Read the entry Ab16 (antibody, human IgG1, kappa, V domains shown, humanized from Ab6; G1; also called Ab1 HC.1 and Ab1 LC.2) VH: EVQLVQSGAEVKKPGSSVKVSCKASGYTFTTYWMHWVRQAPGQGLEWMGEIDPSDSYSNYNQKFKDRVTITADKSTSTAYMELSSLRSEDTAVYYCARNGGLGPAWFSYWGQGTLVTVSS VL: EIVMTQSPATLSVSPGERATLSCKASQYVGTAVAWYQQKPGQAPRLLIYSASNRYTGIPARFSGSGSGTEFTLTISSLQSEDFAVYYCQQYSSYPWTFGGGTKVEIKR and write its reported Baf3-cyPRLR proliferation IC50.
RESULT: 1.73

QUERY: Read the entry Ab46 (antibody, human IgG1, kappa, V domains shown, humanized from Ab8; G1; also called Ab3 HC.1 and Ab3 LC.1b) VH: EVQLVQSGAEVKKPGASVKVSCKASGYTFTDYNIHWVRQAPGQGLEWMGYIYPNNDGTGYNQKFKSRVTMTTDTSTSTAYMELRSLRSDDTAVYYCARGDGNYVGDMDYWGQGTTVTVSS VL: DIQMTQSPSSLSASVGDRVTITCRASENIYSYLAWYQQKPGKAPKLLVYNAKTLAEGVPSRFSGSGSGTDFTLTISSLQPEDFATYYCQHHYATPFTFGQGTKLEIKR and write its reported Baf3-cyPRLR proliferation IC50.
RESULT: 1.72

QUERY: Read the entry Ab19 (antibody, human IgG1, kappa, V domains shown, humanized from Ab6; G1; also called Ab1 HC.1a and Ab1 LC.1a) VH: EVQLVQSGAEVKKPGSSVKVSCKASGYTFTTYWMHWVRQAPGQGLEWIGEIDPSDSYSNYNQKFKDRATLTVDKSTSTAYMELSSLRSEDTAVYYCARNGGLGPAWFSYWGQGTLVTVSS VL: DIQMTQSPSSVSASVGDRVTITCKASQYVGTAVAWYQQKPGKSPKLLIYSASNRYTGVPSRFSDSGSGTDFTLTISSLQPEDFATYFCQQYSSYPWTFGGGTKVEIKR and write its reported Baf3-cyPRLR proliferation IC50.
RESULT: 0.13

Origin of the recorded values: patent US20170022281A1
